Biological target: T1, Avi-6xHis-GS-cyno PSMA ECD (PSMW1) (Macaca fascicularis, UniProt Q04609 48-750 (human entry))
T1 construct: also called PSMW1.009; cy PSMA
T1 chain: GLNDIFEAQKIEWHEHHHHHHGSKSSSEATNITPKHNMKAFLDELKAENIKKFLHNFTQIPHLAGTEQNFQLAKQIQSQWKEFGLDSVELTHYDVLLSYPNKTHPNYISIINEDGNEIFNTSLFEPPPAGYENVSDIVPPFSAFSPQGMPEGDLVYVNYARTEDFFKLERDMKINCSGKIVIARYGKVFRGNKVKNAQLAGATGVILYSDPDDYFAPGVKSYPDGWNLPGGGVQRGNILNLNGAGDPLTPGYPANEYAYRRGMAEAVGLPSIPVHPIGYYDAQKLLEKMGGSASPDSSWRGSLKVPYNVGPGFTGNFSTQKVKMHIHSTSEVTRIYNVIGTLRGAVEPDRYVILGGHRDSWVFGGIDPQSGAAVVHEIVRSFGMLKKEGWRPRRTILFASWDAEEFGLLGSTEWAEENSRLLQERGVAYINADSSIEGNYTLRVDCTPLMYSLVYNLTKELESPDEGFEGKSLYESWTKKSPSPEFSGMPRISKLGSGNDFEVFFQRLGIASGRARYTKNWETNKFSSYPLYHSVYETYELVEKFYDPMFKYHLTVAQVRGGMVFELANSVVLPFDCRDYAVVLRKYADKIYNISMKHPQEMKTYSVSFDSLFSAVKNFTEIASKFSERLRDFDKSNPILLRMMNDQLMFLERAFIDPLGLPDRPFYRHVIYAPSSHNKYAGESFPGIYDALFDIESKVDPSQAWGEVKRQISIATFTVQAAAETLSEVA
Test: SPR Biacore 8K, mAb captured by anti-Fc, antigen in solution
READOUT NAME: pKd
One number for each entry, as −log10 of the molar value.

PSMB897 (antibody, human IgG1, lambda, L234A L235A, V domains shown) VH: EVQLVESGGGLVQPGGSLRLSCAASGFTFSSYAMSWVRQAPGKGLEWVSAISGGSGSTYYADSVKGRFTISRDNSKNTLYLQMNSLRAEDSAVYYCAKDGVGATPYYFDYWGQGTLVTVSS VL: QSVLTQPPSVSAAPGQKVTISCSGSSSNIGNNYVSWYQQLPGTAPKLLIYDNNKRPSGIPDRFSGSKSGTSATLGITGLQTGDEADYYCGTWDSSLSAYVFGTGTKVTVLG    8.41
PSMB898 (antibody, human IgG1, lambda, L234A L235A, V domains shown) VH: EVQLVESGGGLVQPGGSLRLSCAASGFTFSSYAMSWVRQAPGKGLEWVSAISGGSGSTYYADSVKGRFTISRDNSKNTLYLQMNSLRAEDSAVYYCAKDGVGATPYYFDYWGQGTLVTVSS VL: QSVLTQPPSVSAAPGQKVTISCSGSSSNIGINYVSWYQQLPGTAPKLLIYDNNKRPSGIPDRFSGSKSGTSATLGITGLQTGDEADYYCGTWDSSLSAVVFGGGTKLTVLG    8.92

The binder PSMB895 (antibody, human IgG1, lambda, L234A L235A, V domains shown) VH: EVQLVESGGGLVQPGGSLRLSCAASGFTFSSYAMSWVRQAPGKGLEWVSAISGGIGSTYYADSVKGRFTISRDNSKNTLWLQMNSLRAEDTAVYYCAKDGVGATPYYFDYWGQGTLVTVSS VL: QSVLTQPPSVSAAPGQKVTISCSGSSSNIGNNYVSWYQQLPGTAPKLLIYDNNKRPSGIPDRFSGSKSGTSATLGITGLQTGDEADYYCGTWDSSLSAYVFGTGTKVTVLG showed pKd equal to 8.55
